conditions: cynomolgus monkey, in vivo, sc, 40 mg/kg
Property: Kidney weight; scope: individual substances
Write your answer as a measured quantity: the number, then the unit.

The examples below pair each entry with its known result.
TGATTTAATGGTTGCA [ISIS 569221] (cEt/MOE gapmer chemistry, further chemistry not given here)
14 g
TTGATTTAATGGTTGC [ISIS 560131] (MOE and (S)-cEt gapmer chemistry, further chemistry not given here)
12 g
TGATTTAATGGTTGCA [ISIS 569216] (cEt/MOE gapmer chemistry, further chemistry not given here)
15 g

Summary for this substance, ISIS 583918: antisense compound targeted to human AR (AGTCGCGACTCTGGTA; 3-10-3 (S)-cEt gapmer, further chemistry not given here) : Kidney weight is 12 g

Lab note: measured Kidney weight of TGATTTAATGGTTGCA [ISIS 569236] (cEt/MOE gapmer chemistry, further chemistry not given here) was 12 g

Entry ISIS 584468: antisense compound targeted to human AR (CATTGTACTATGCCAG; 3-10-3 (S)-cEt gapmer, further chemistry not given here) ; Kidney weight = 13 g
